Value source: paper PMC7344962

target-under-test: T1, major surface antigen 1 (SAG1) of Toxoplasma gondii (Toxoplasma gondii, UniProt P13664 48-336)
T1 chain: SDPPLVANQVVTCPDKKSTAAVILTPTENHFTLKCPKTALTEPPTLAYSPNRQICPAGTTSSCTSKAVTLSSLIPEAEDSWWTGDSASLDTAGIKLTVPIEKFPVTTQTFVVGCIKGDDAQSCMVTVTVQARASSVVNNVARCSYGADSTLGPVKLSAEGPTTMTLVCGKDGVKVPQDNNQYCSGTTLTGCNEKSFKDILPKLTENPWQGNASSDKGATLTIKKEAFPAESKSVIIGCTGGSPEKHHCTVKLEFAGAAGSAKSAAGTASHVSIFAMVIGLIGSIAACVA
assay-text: SPR; two-state fit (kd1)
measurement-label: koff (s⁻¹)
Give bare numbers, in s⁻¹.

The binder listed as scFv S1D4 (scFv, V domains shown) VH: QVQLQQSGAELVRPGTSVKISCKASGYTFTDYGMHWVKQRPGHGLEWIGIISTYSGDASYNQKFKGKATMTVDKSSSTAYMQLSSLTSEDSAVYYCARSSTWYYFDYWGQGTLVTVSA VL: DIQMTQTPSSLSASLGDRVTISCRASQDISNYLNWYQQKPDGTVKLLIYYTSRLHSGVPSRFSGSGSGTDYSLTISNLEPEDIATYYCQQGNTLPYTFGGGTKLEIK has a reported koff of 0.0183
